Data credit: patent US20210198647A1

- assayed system: Neurolysin (Nln) (Rattus norvegicus)
- Construct: polyhistidine (N); made in house; host or cells: Escherichia coli (pBAD/His vector), if the rat enzyme of b61 was used
- Sequence (P42676 38-704): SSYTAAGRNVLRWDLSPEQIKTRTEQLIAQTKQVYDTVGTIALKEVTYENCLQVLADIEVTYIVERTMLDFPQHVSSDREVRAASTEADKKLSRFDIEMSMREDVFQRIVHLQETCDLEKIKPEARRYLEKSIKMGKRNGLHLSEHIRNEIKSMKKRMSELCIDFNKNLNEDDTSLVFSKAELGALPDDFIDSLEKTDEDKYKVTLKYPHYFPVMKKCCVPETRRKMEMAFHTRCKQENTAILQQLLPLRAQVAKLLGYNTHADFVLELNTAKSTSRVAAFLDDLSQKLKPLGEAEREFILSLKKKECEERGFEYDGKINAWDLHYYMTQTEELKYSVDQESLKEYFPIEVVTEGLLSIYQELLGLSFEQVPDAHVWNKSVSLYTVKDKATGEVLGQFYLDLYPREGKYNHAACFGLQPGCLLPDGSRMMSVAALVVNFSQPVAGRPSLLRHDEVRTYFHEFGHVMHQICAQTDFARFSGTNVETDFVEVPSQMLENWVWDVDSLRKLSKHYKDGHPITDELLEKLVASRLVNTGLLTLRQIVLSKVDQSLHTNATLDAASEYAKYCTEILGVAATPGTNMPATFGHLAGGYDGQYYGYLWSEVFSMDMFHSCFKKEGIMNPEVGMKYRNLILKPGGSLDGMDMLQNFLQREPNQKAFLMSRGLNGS
- experiment description: Nln activation in isolated enzyme assay (A50, Amax)
- Assay type: biochemical
- condition set: 95% CI in parentheses; read-out: A50 (concentration required to activate Nln by 50%)
Peptide text beside a SMILES is read from it. * marks the point of attachment. NHPhenethyl = c1ccc(CCN*)cc1
Consider the following compounds and their measured EC50 readings.
Provide only the numeric value, understood in µM.

Please review the entries below; each comes with its answer.
[
  {
    "compound": "N[C@@H](Cc1c[nH]cn1)C(=O)N[C@@H](Cc1ccccc1)C(=O)NCCc1ccccc1 [AB-2-5-4] (H-His-Phe-NHPhenethyl)",
    "assayed system": "Neurolysin (Nln) (Rattus norvegicus)",
    "assay result": 5.4
  },
  {
    "compound": "N[C@@H](Cc1c[nH]cn1)C(=O)NCCc1ccc(F)cc1",
    "assayed system": "Neurolysin (Nln) (Rattus norvegicus)",
    "assay result": 27.9
  },
  {
    "compound": "N[C@@H](Cc1c[nH]cn1)C(=O)NCc1ccc2ccccc2c1 [Compound 10a]",
    "assayed system": "Neurolysin (Nln) (Rattus norvegicus)",
    "assay result": 4.4
  }
]

Query: // lookup EC50 for N[C@@H](Cc1c[nH]cn1)C(=O)Nc1ccccc1 (single isomer, unassigned) [DF-5-2A]
Response: 7.74

Query: So what does the record say about EC50 for N[C@@H](Cc1c[nH]cn1)C(=O)N[C@@H](Cc1ccccc1)C(=O)O (stereo in doubt) ?
Response: 130

Query: Given `N[C@H](Cc1c[nH]cn1)C(=O)Nc1ccccc1` , state its recorded EC50.
Response: 114

Query: EC50 for N[C@@H](Cc1c[nH]cn1)C(=O)NCc1ccc2ccccc2c1 [DF-9-2] ?
Response: 12.3

Query: So what does the record say about EC50 for N[C@H](Cc1c[nH]cn1)C(=O)NCc1ccc2ccccc2c1 [Compound 10b] ?
Response: 6.3

Query: Item N[C@@H](Cc1c[nH]cn1)C(=O)Nc1ccccc1 [Compound 6a] has what recorded EC50?
Response: 252
